- System: CCRIS mutagenicity, Ames/micronucleus/aberration tests
- Protocol notes: CCRIS mutagenicity studies
- Assay setup: Test System: AMES SALMONELLA TYPHIMURIUM; Strain/Indicator: TA98; Metabolic Activation: NONE; Method: PREINCUBATION
The source made the active and inactive calls. No rule for the calls is given here.
Value kind: mutagenic call

>>> df
                               input_smiles              result
0                                 OCc1ccco1  inactive; negative
1  C=C1C/C(=C/C)C(=O)O[C@@H]2CCN3CC=C(COC(=O)[C@@]1(O)CO)[C@H]23  inactive; negative
2                          Clc1nncc2ccccc12  inactive; negative

====

- Tested on: CCRIS mutagenicity, Ames/micronucleus/aberration tests
- Protocol notes: CCRIS mutagenicity studies
- Assay setup: End Point: IN VITRO CHROMOSOMAL ABERRATIONS; Test System: CHINESE HAMSTER OVARY CELLS; Metabolic Activation: NONE
- Text: The CCRIS database contains chemical records with carcinogenicity, mutagenicity, tumor promotion, and tumor inhibition test results. It was developed by the National Cancer Institute (NCI). Data are derived from studies cited in primary journals, current awareness tools, NCI reports, and other sources. Test results have been reviewed by experts in carcinogenesis and mutagenesis. CCRIS provides historical information from the years 1985 - 2011. It is no longer updated. […]
Active and inactive are the calls of the source. No rule for the calls is given here.
One label from this list, please: TRUE for active, FALSE for inactive

Q: Kindly provide the recorded test outcome for the following compound: "COc1cc2c(c(OC)c1OC)-c1ccc(OC)c(=O)cc1[C@@H](NC(C)=O)CC2"
A: TRUE

Q: Returns: the outcome recorded for "Nc1ccc(O)c(N)c1" in this assay.
A: FALSE

Q: Please indicate how the test categorized "O=c1ccc2ccccc2o1" .
A: FALSE

Q: Can you look up the reported call for "CCCC=O" for me?
A: FALSE

Q: Write down the call the test reported for this compound. Item: FC(F)(F)C(Cl)Br (configuration not stated)
A: FALSE

Q: What did this assay record as the result for "ClCC(Cl)(Cl)Cl" ?
A: FALSE

Q: So what was the verdict on "C=C1C/C(=C/C)C(=O)O[C@@H]2CCN3CC=C(COC(=O)[C@@]1(O)CO)[C@H]23" in this test?
A: FALSE

====

- System: CCRIS mutagenicity, Ames/micronucleus/aberration tests
- Protocol notes: CCRIS mutagenicity studies
- Assay setup: Test System: AMES SALMONELLA TYPHIMURIUM; Strain/Indicator: TA1537; Metabolic Activation: HAMSTER, LIVER, S-9, AROCLOR 1254 (10%); Method: PREINCUBATION
Activity calls are given as the source filed them. The rule behind the calls is not given here.
A correct response names exactly one class from active, inactive

Q: Could you kindly confirm the outcome this assay logged for "C[CH2][Hg][S]c1ccccc1C(=O)O" ?
A: inactive

Q: What did the test return for "CCOP(=S)(OCC)SCSC(C)(C)C" ?
A: inactive

Q: Identify the outcome logged in this assay for the molecule shown: "c1ccc(N=NNc2ccccc2)cc1"
A: active

Q: So what was the verdict on "CCCCOC(=O)c1ccccc1N" in this test?
A: inactive

Q: Recorded test call requested for "NC(=O)c1ccccc1C(N)=O"
A: inactive

Q: Recorded call for "O=C(OC1CCCCC1)c1ccccc1C(=O)OC1CCCCC1" ?
A: inactive

Q: Hi, sorry to bother you, what did the test record for "O=[N+]([O-])c1ccccc1CCO" ?
A: inactive

Q: Assay result, entry CCOC(=O)C1OC1(C)c1ccccc1 (centres undefined) — outcome?
A: inactive

Q: Dear colleague, could you share the recorded outcome for "NCCNCCN" when you have a moment?
A: inactive

Q: Any idea what this test logged for CCOC(=O)C1OC1c1ccccc1 (centres undefined) ?
A: inactive

Q: Just curious, what result did "CC(=O)c1c(=O)cc(C)oc1=O" get here?
A: inactive

Q: In this assay, the call recorded for "O=c1ccc2ccccc2o1" was what?
A: inactive

Q: Each molecule tested received a call. Report the one for "O=C(O)c1ccccc1-c1c2ccc(=O)cc-2oc2cc(O)ccc12" .
A: inactive

Q: Answer briefly: the call reported for "Nc1ccc(O)c(N)c1" in this assay.
A: inactive

Q: For "COc1cc(OC)c(OC)cc1C=O" , which call appears in the assay record?
A: inactive

Q: Which outcome did this test record for the molecule "O=C1OC(=O)c2c(Br)c(Br)c(Br)c(Br)c21" ?
A: inactive

Q: Recorded call for "CCN1CCOCC1" ?
A: inactive

Q: # fetch the recorded call for "O=NN1CCCCC1" here
A: inactive

Q: Dear all, I need the recorded test outcome for "Nc1n[nH]c(N)n1" , thank you.
A: inactive
